- System: A498
- Procedure summary: NCI tumour cell line growth inhibition, 48 h
Calls of active or inactive are those of the source. No stated cut-off is given here; in the data, active = GI50 up to about 1.1 µM and inactive = higher.
Recorded endpoint: GI50

Reference set, count: 4
O=C(Nc1cc(Cl)cc(Cl)c1)/C(Cc1nc2ccccc2nc1O)=N/NC(=O)c1ccncc1	> 100 µM (inactive)
CC[C@@]1(OC(=O)C(N)CCC(=O)O)C(=O)OCc2c1cc1n(c2=O)Cc2cc3ccccc3nc2-1 (stereo not given in full)	0.187 µM (active)
COc1ccc(-c2cc(O)c3cc(C)cnc3n2)cc1	7.29 µM (inactive)
COC(=O)[C@]12CCC(C)[C@H](C)[C@H]1C1=CCC3[C@@]4(C)CC[C@H](OC(C)=O)C(C)(C)C4CC[C@@]3(C)C1(C)C(O)C2 (stereo not given in full)	> 100 µM (inactive)

Incoming: Using the record for Cc1ncc(CSC(=N)N)n1Cc1ccccc1 , state its measured GI50.
Outgoing: > 100 µM (inactive)
